Catalogue of hERG current change (%, negative = inhibition) at 10uM readings, one per entry.
study-system: human ether-à-go-go-related gene (hERG) potassium channel (human, UniProt Q12809);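 note: peak tail current of the secondary pulse compared with the same well before compound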
Sequence (Q12809 whole entry, looked up): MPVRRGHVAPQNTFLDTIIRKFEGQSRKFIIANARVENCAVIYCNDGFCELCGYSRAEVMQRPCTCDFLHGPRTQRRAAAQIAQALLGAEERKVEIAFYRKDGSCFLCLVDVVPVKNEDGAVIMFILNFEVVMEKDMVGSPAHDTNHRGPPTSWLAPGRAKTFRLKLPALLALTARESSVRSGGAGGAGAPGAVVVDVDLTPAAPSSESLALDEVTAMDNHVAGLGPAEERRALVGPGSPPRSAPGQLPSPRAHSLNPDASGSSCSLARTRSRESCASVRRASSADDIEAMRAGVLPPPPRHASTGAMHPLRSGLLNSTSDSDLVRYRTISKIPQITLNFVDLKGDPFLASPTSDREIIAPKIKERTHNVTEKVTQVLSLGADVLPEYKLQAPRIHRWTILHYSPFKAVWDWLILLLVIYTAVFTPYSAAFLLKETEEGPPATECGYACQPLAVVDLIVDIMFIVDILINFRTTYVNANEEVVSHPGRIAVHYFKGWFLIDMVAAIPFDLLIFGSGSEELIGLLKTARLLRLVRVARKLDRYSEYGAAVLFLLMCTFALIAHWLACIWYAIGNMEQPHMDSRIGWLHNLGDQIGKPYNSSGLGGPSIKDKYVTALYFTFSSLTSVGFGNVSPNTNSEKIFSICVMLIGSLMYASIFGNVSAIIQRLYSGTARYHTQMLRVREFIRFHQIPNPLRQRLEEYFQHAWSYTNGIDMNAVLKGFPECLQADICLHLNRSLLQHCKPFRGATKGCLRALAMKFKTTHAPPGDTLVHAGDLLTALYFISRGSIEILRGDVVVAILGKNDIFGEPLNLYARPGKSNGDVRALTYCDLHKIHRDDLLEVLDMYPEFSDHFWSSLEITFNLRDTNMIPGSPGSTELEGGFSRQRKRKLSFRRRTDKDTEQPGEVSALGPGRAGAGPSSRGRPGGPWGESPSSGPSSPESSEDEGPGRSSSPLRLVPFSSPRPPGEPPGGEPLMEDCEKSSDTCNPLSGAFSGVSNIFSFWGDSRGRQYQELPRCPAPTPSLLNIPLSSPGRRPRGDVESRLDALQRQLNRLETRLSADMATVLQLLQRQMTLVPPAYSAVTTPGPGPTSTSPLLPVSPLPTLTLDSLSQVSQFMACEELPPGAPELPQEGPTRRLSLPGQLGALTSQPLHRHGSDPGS
assay-text: primary screen, population patch clamp on CHO cells stably expressing hERG; higher = less effect of the substance
The campaign covered roughly 310,000 compounds. About 14,000 (4.5%) showed an effect of 50% or more. Effects have a minus sign here. This excerpt belongs to a sample that is enriched for strong results.
Answer format: numeric, % implied, no suffix.

Would you please look over these solved cases?
structure_smiles_string=Cc1ccc(NC(=O)OCCNC(=O)c2ccncc2)cc1 reading_unit=% value_observed=8.86
structure_smiles_string=CO/N=C(\N)c1nonc1N reading_unit=% value_observed=0.407

// next item, hERG current change (%, negative = inhibition) at 10uM requested
Request: Any idea what hERG current change (%, negative = inhibition) at 10uM was measured for "O=C(O)CCN1C(=O)c2ccc(NC(=O)Cc3ccc(Cl)cc3)cc2C1=O" ?
Result: 3.94

----------
Catalogue of hERG current change (%, negative = inhibition) at 10uM readings, one per entry.
study-system: human ether-à-go-go-related gene (hERG) potassium channel (human);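 note: peak tail current of the secondary pulse compared with the same well before compound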
assay-text: primary screen, population patch clamp on CHO cells stably expressing hERG; higher = less effect of the substance
Among all 310,000 compounds or so, about 14,000 (4.5%) showed an effect of 50% or more. The effect is printed as a negative number. The sample holds strong results, similar compounds and a random draw of the others, so the mix is not that of the screen.
Answer format: numeric, % implied, no suffix.

Would you please look over these solved cases?
compound="COCCN(C(=O)CCC(=O)Nc1ccccn1)C(C(=O)NC(C)C)c1ccc(Cl)cc1 (centres unmarked)" value_observed=-5.58
compound=Cc1nc2ccc(NC(=O)c3cccs3)cc2c(=O)n1Cc1ccc(Cl)cc1 value_observed=9.84
compound=Cc1ccc(S(=O)(=O)N2CCCCC2)cc1NC(=O)CSc1ncnc2ccccc12 value_observed=-36.2
compound=Cc1ccc(NC(=O)Cc2ccccc2Cl)cc1S(=O)(=O)N(C)C value_observed=0.299
compound="CN(C)c1ccc(CNCC2CCCO2)cc1.Cl (centres unmarked)" value_observed=10.5

// next item, hERG current change (%, negative = inhibition) at 10uM requested
Request: Any idea what hERG current change (%, negative = inhibition) at 10uM was measured for "CCN(CC)c1cc(C)c2cc(NC(=O)c3ccccc3OC)ccc2n1" ?
Result: -18.6

----------
study-system: human ether-à-go-go-related gene (hERG) potassium channel (human, UniProt Q12809);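 note: peak tail current of the secondary pulse compared with the same well before compound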
assay-text: primary screen, population patch clamp on CHO cells stably expressing hERG; higher = less effect of the substance
Description: Briefly, Chinese hamster ovary (CHO) cells stably expressing the hERG channel were dislodged from tissue culture flasks and dispensed into PPC plates. […] During the recording, background leak currents were estimated by a 100 ms step to -80 mV from an initial holding potential of -70 mV and subtracted from the subsequent current measurement. The campaign was conducted in two phases using slight differences in recording protocol. […]
About 14,000 (4.5%) of roughly 310,000 compounds showed an effect of 50% or more. Effects have a minus sign here. The list comes from a sample in which strong results are over-represented; it also holds close analogues and randomly drawn compounds.
Catalogue of hERG current change (%, negative = inhibition) at 10uM readings, one per entry.

compound=CCCCCCCNC(=O)CN1N=C(c2ccc(C)cc2)CCC1=O value_observed=-67.8%
compound=COCCN(CCOC)S(=O)(=O)c1ccc(C(=O)Nc2nc(C)c(C(C)=O)s2)cc1 value_observed=13%
compound=O=C(c1ccc(OC2CCN(C/C=C/c3ccccc3)CC2)cc1)N1CCCCC1 value_observed=-53.1%

Request: Any idea what hERG current change (%, negative = inhibition) at 10uM was measured for COc1ccc(CN(C(=O)CNC(=O)c2ccco2)C(C(=O)NC2CCCC2)c2ccco2)cc1 (centres unmarked) ?
Result: -15.9%

Request: Any idea what hERG current change (%, negative = inhibition) at 10uM was measured for CC(NCc1ccc(OCc2ccc(Cl)cc2)cc1)C(O)c1ccccc1.Cl (centres unmarked) ?
Result: -62.5%

Request: Any idea what hERG current change (%, negative = inhibition) at 10uM was measured for "O=C(Cn1[nH]c(=O)c2ccccc2c1=O)N1CC=C(c2ccccc2)CC1" ?
Result: -4.76%

Request: Any idea what hERG current change (%, negative = inhibition) at 10uM was measured for "CCOC(=O)c1cc(NCc2cccs2)ccc1N1CCOCC1" ?
Result: -3.79%

Request: Any idea what hERG current change (%, negative = inhibition) at 10uM was measured for CCN1CCN(CC(=O)N2N=CCC2c2ccccc2)CC1 (centres unmarked) ?
Result: 3.12%

Request: Any idea what hERG current change (%, negative = inhibition) at 10uM was measured for "Cc1ccc2nc(SCc3nnc(-c4ccccc4Br)o3)[nH]c2c1" ?
Result: -6.41%
